# system: Ba/F3 stable cells (Homo sapiens, UniProt P00533, DUP767-769, cells depend on it)
# Construct: EC50 Ba/F3-EGFR V769-D770insASV; other: Ba/F3-EGFR V769-D770insASV cells, 72 h, CCK-8
# Sequence (P00533 with tags, fused parts or gaps DUP767-769): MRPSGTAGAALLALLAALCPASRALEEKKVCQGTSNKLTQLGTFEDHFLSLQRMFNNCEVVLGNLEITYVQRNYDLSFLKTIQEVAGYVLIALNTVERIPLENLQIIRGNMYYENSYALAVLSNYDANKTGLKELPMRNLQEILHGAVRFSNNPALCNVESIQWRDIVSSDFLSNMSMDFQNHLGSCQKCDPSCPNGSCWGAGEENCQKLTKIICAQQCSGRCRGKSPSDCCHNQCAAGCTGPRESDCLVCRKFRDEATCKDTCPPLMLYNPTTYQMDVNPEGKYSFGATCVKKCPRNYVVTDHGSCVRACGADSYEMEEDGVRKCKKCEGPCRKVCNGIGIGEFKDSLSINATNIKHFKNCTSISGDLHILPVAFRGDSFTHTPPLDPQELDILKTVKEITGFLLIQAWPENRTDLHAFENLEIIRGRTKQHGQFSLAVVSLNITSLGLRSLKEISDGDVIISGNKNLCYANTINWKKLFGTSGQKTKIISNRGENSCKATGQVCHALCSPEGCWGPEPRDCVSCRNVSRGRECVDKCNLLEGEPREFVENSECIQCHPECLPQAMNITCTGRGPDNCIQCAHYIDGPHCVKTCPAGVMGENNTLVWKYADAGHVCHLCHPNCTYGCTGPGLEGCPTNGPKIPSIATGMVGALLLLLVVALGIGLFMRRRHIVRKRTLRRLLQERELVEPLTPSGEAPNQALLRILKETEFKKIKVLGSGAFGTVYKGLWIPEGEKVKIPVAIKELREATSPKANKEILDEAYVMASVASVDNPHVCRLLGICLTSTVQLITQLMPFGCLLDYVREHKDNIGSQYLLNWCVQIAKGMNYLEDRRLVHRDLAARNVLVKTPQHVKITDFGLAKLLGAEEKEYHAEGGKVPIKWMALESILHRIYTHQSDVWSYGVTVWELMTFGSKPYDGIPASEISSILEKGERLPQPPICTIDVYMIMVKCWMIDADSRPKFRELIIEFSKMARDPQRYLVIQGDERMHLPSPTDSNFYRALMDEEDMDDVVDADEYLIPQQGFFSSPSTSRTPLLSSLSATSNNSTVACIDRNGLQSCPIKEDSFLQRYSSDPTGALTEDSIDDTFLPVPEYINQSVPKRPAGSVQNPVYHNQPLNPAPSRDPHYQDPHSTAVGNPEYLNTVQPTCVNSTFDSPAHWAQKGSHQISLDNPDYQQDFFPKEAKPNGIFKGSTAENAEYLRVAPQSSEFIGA
# assay.notes: EC50 assay: Ba/F3 stable cell proliferation (CCK-8, 72 h)
# conditions: Ba/F3-EGFR V769-D770insASV cells
pEC50: −log10 of the molar value.
Below, each of the compounds is paired with its reported pEC50 value.

Query: Could you share what pEC50 was measured for C=CC(=O)N1CCC(Oc2cc3c(NC(=O)c4ccc(F)cc4)ncnc3cc2OC)CC1 [Compound 98] , tested on Ba/F3 stable cells (Homo sapiens, UniProt P00533, DUP767-769, cells depend on it)?
Response: < 6.00

Query: Could you share what pEC50 was measured for C=CC(=O)N1CCC(Oc2cc3c(NCc4cccc(Cl)c4F)ncnc3cc2OC)CC1 [Compound 116] , tested on Ba/F3 stable cells (Homo sapiens, UniProt P00533, DUP767-769, cells depend on it)?
Response: ≥ 6.70

Query: Could you share what pEC50 was measured for C=CC(=O)N1CC(Oc2c(OC)cc3ncnc4c3c2NC(=O)N4c2ccc(Cl)c(Cl)c2F)C1 [Compound 216] , tested on Ba/F3 stable cells (Homo sapiens, UniProt P00533, DUP767-769, cells depend on it)?
Response: ≥ 6.70

Query: Could you share what pEC50 was measured for C=CC(=O)N1C2CCC1CC(Oc1cc3c(Nc4cccc5ccccc45)ncnc3cc1OC)C2 (stereo not shown) [Compound 181] , tested on Ba/F3 stable cells (Homo sapiens, UniProt P00533, DUP767-769, cells depend on it)?
Response: ≥ 6.70

Query: Could you share what pEC50 was measured for C=CC(=O)NC1CC(Oc2cc3c(Nc4cccc(Cl)c4F)ncnc3cc2OC)C1 (stereo not shown) [Compound 74] , tested on Ba/F3 stable cells (Homo sapiens, UniProt P00533, DUP767-769, cells depend on it)?
Response: ≥ 6.70

Further cases:
Query: Could you share what pEC50 was measured for C=CC(=O)N[C@H]1C[C@H](Oc2cc3c(Nc4ccc(Cl)c(Cl)c4F)ncnc3cc2OC)C1 [Compound 79] , tested on Ba/F3 stable cells (Homo sapiens, UniProt P00533, DUP767-769, cells depend on it)?
Response: ≥ 6.70

Query: Could you share what pEC50 was measured for C=CC(=O)N1CC(c2cc3c(Nc4ccc(Cl)c(Cl)c4F)ncnc3cc2OCCN(C)C)C1 [Compound 26] , tested on Ba/F3 stable cells (Homo sapiens, UniProt P00533, DUP767-769, cells depend on it)?
Response: ≥ 6.70

Query: Could you share what pEC50 was measured for C=CC(=O)N1CCC(Oc2cc3c(NCc4cc(Cl)ccc4F)ncnc3cc2OC)CC1 [Compound 118] , tested on Ba/F3 stable cells (Homo sapiens, UniProt P00533, DUP767-769, cells depend on it)?
Response: < 6.00

Query: Could you share what pEC50 was measured for C=CC(=O)N[C@H]1C[C@@H](Oc2cc3c(Nc4ccc(Cl)c(Cl)c4F)ncnc3cc2OCC)C1 [Compound 105] , tested on Ba/F3 stable cells (Homo sapiens, UniProt P00533, DUP767-769, cells depend on it)?
Response: ≥ 6.70

Source: patent US20250243171A1
